Where these numbers come from: PubChem BioAssay AID1117319

What inhibition was measured for each of the following?
- System tested: Virion infectivity factor (Human immunodeficiency virus type 1 group M subtype B (isolate BH10)) + Virion infectivity factor (Human immunodeficiency virus type 1 group M subtype B (isolate BRU/LAI)) + Virion infectivity factor (Human immunodeficiency virus type 1 group M subtype B (isolate PCV12)) + Virion infectivity factor (Human immunodeficiency virus type 1 group M subtype B (isolate HXB2)) + DNA dC->dU-editing enzyme APOBEC-3G (Homo sapiens) (UniProt P69720+P69721+P69722+P69723+Q9HC16)
- Experimental details: inhibitors of Vif binding to APOBEC3G peptide, primary screen, biochemical, TR-FRET, GST-Vif 1-94, biotin-A3G peptide, dose response retest (AID 1117319);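 further: Vif residues 1-94 fused to GST binding biotinylated APOBEC3G peptide 110-148; 0% = full assay without inhibitor and 100% = GST in place of GST-Vif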
- Test parameters: active compounds read high
Screen size: about 260,000 compounds; about 1,500 (0.58%) were called active. Roughly 5% stayed inconclusive and do not appear here. Not all results are given here. Entries with a potency or affinity are not part of this list.

These solved cases illustrate the format of a correct answer.
Molecule	Observed value
CCn1c(Cc2ccccc2)nnc1SCC(=O)Nc1ccc(C)cc1	-8.39% (inactive)
COc1ccc(CCNC(=S)Nc2cc(C)ccc2C)cc1	2.7% (inactive)
Cc1[nH]c2ccccc2c1C(=O)CSc1nc2ccccc2[nH]1	30.3% (inactive)
Cc1ccc(NC(=O)C2CCCN(S(=O)(=O)c3cnc[nH]3)C2)c(Br)c1 (centres undefined)	1.69% (inactive)
O=c1c2cc(N3CCOCC3)ccc2[nH]c(=S)n1Cc1ccc(Cl)cc1	-2.52% (inactive)
COc1cccc(CNS(=O)(=O)c2ccc3c(c2)CCN3C(=O)C2CC2)c1	5.57% (inactive)
CC(=O)c1ccc(OCc2cc(C(=O)N3CCC[C@H]3CO)no2)cc1	1.22% (inactive)
O=C(CN(C(=O)CNS(=O)(=O)c1ccc(F)cc1)C1CCCC1)NCc1ccco1	-8.82% (inactive)

In the following, a different molecule is considered.
What value of inhibition has been reported for the following molecule? `COc1ccc(NC(=O)CN(C)C(=O)c2cc(-c3ccc(OC)cc3)nc3ccccc23)cc1`
-5.94% (inactive)

###

- System tested: Virion infectivity factor (Human immunodeficiency virus type 1 group M subtype B (isolate BH10)) + Virion infectivity factor (Human immunodeficiency virus type 1 group M subtype B (isolate BRU/LAI)) + Virion infectivity factor (Human immunodeficiency virus type 1 group M subtype B (isolate PCV12)) + Virion infectivity factor (Human immunodeficiency virus type 1 group M subtype B (isolate HXB2)) + DNA dC->dU-editing enzyme APOBEC-3G (Homo sapiens) (UniProt P69720+P69721+P69722+P69723+Q9HC16)
- Experimental details: inhibitors of Vif binding to APOBEC3G peptide, primary screen, biochemical, TR-FRET, GST-Vif 1-94, biotin-A3G peptide, dose response retest (AID 1117319);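 further: Vif residues 1-94 fused to GST binding biotinylated APOBEC3G peptide 110-148; 0% = full assay without inhibitor and 100% = GST in place of GST-Vif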
- Test parameters: active compounds read high
Hit rate of the full screen: of about 260,000 compounds, about 1,500 (0.58%) were called active. About 5% were inconclusive and are not listed. Not all results are given here. Potency and affinity values are given separately.
Exercise: state measured inhibition for each of the molecules provided.
Give bare numbers, in %.

Answered cases to consult:
Molecule	Observed value
CCn1c(C)nnc1SCC(=O)Nc1cccc(C(F)(F)F)c1	-2.71
CC1NC(=O)NC1CCCCCC(=O)Nc1ccc(F)c(Cl)c1 (centres undefined)	-8.82
CC(=O)NNc1ncnc2ccccc12	16

Turning now to a further molecule:
For the molecule shown here, `COc1ccc(N2CS(=O)(=O)/C(=C/N(C)C)C2=O)cc1` , give the reported inhibition.
9.06
